STUDY TARGET: ATP-binding cassette sub-family C member 2 (Rattus norvegicus, UniProt Q63120)
Sequence (Q63120 whole entry): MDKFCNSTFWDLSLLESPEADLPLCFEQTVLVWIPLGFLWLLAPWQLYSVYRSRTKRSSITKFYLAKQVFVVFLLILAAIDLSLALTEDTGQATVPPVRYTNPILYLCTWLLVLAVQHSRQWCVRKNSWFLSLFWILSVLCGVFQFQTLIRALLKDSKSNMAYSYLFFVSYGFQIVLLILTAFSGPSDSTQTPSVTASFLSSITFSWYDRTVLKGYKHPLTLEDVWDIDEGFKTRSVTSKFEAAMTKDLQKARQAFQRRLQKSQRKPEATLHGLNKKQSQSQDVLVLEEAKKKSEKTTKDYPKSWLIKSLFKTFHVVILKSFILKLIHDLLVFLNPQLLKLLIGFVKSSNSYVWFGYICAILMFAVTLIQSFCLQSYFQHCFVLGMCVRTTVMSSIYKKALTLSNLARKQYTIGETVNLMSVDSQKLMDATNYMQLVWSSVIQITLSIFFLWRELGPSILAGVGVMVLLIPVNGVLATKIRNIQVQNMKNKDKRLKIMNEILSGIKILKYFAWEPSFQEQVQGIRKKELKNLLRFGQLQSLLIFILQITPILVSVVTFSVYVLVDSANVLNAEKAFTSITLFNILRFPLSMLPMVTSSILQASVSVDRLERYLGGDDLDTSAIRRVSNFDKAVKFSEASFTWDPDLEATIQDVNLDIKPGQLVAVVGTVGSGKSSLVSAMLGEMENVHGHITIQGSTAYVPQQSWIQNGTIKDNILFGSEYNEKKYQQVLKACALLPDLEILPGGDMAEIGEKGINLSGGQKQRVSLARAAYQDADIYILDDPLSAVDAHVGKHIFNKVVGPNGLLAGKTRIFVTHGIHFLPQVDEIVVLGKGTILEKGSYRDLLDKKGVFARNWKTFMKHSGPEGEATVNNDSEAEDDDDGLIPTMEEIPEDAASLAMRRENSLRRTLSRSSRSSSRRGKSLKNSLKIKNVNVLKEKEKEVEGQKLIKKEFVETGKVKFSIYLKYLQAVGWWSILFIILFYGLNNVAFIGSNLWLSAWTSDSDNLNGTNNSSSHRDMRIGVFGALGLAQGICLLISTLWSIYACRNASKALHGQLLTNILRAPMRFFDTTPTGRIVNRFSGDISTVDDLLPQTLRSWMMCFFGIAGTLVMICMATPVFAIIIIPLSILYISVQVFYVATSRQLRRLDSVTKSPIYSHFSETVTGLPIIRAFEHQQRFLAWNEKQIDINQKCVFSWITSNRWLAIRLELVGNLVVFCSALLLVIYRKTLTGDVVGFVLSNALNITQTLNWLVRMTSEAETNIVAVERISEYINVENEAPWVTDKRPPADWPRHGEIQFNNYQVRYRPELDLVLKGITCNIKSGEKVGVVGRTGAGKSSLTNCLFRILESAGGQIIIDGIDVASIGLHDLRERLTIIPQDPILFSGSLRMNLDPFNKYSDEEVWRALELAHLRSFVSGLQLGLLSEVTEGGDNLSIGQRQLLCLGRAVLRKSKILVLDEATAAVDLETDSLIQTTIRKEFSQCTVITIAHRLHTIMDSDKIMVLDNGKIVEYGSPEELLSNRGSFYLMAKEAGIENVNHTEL
EXPERIMENT DESCRIPTION: TP_TRANSPORTER: inhibition of DNP-SG uptake (DNP-SG: 0.05 uM) in membrane vesicles from Mrp2-expressing Sf9 cells
Format: functional, cell membranes, Membrane vesicle

| COMPOUND | IC50 (µM) |
| --- | --- |
| C[C@]12CC[C@@H]3c4ccc(O)cc4CC[C@H]3[C@@H]1CC[C@@H]2O[C@@H]1O[C@H](C(=O)O)[C@@H](O)[C@H](O)[C@H]1O [ESTRADIOL 17B GLUCURONIDE] | 13.3 |
